Values were extracted from ChEMBL document CHEMBL3046968.

Tested on: Allium cepa
assay.details: Phytotoxicity against Allium cepa (onion) assessed as growth inhibition of root length measured 7 days post treatment
Assay type: functional, organism-based
experimental.parameters: 168 h
IC50 values, listed per item

compound: CCCON1C(=O)COc2ccc(Cl)cc21
IC50 [nM]: 200
//
compound: CCCCC(=O)ON1C(=O)COc2ccc(Cl)cc21
IC50 [nM]: 200
//
compound: CCC1Oc2ccc(F)cc2N(O)C1=O (centres undefined)
IC50 [nM]: 1300
//
compound: CCC1Oc2ccc(Cl)cc2N(O)C1=O (centres undefined)
IC50 [nM]: 1600
